# EXPERIMENT DESCRIPTION: The drug is tested on WLS-086 corresponding to human gut metagenome with ENA study accession number: PRJEB37062 and ENA sample accession number: ERS12561752 for biotransformation under anaerobic condition. The drug concentrations were measured over 9 timepoints collected between 0 and 24 hours of incubation by liquid-chromatography-coupled mass spectrometry (LC–MS); further: call rule not given here
# CONDITION: 2 µM
ASSAY METRIC: Bacterial Biotransformation

{"MOLECULE": "O=C(NCc1ccccc1)OCCO [BURAMATE]", "Bacterial Biotransformation": "Compound NOT metabolized"}
{"MOLECULE": "CC(C(=O)O)c1ccc2c(c1)Cc1cccnc1O2 (stereo not given)", "Bacterial Biotransformation": "Compound metabolized"}
{"MOLECULE": "Cc1nc2n(c(=O)c1CCN1CCC(c3noc4cc(F)ccc34)CC1)CCCC2", "Bacterial Biotransformation": "Compound metabolized"}
{"MOLECULE": "NC12CC3CC(CC(C3)C1)C2", "Bacterial Biotransformation": "Compound NOT metabolized"}

Give the reported value of Bacterial Biotransformation for this record: COc1ccccc1OCC(O)CN1CCN(CC(=O)Nc2c(C)cccc2C)CC1 (stereo not given)
Compound metabolized

Specify Bacterial Biotransformation for OCCN1CCN(CCCN2c3ccccc3Sc3ccc(C(F)(F)F)cc32)CC1 and stop.
Compound metabolized

Provide measured Bacterial Biotransformation value, entry: CCN(CC)CCNC(C(=O)OCCC(C)C)c1ccccc1.Cl.Cl (stereo not given)
Compound metabolized

Complete the entry with Bacterial Biotransformation for CN(C)C(=O)C(CCN1CCC(O)(c2ccc(Cl)cc2)CC1)(c1ccccc1)c1ccccc1 [LOPERAMIDE]
Compound metabolized

Item COc1cc2nc(N(C)CCCNC(=O)C3CCCO3)nc(N)c2cc1OC (stereo not given) : provide Bacterial Biotransformation
Compound metabolized

----------
# EXPERIMENT DESCRIPTION: The drug is tested on Z-030 corresponding to mouse gut metagenome with ENA study accession number: PRJEB37062 and ENA sample accession number: ERS12561829 for biotransformation under anaerobic condition. The drug concentrations were measured over 9 timepoints collected between 0 and 24 hours of incubation by liquid-chromatography-coupled mass spectrometry (LC–MS)
# CONDITION: 2 µM
ASSAY METRIC: Bacterial Biotransformation

Consider the reported Bacterial Biotransformation for these compounds:
{"COMPOUND": "CCOC(=O)[C@H](CCc1ccccc1)N[C@H]1CCc2ccccc2N(CC(=O)O)C1=O", "Bacterial Biotransformation": "Compound metabolized"}
{"COMPOUND": "Cc1ccnc2c1NC(=O)c1cccnc1N2C1CC1", "Bacterial Biotransformation": "Compound NOT metabolized"}
{"COMPOUND": "CC(O)(CS(=O)(=O)c1ccc(F)cc1)C(=O)Nc1ccc(C#N)c(C(F)(F)F)c1 (stereo not drawn) [BICALUTAMIDE]", "Bacterial Biotransformation": "Compound NOT metabolized"}
{"COMPOUND": "CC[C@@H](CO)NC(=O)[C@@H]1C=C2c3cccc4c3c(cn4C)C[C@H]2N(C)C1.O=C(O)/C=C\\C(=O)O [METHYSERGIDE MALEATE]", "Bacterial Biotransformation": "Compound NOT metabolized"}
{"COMPOUND": "CN/C(=N/CCSCc1nc[nH]c1C)NC#N", "Bacterial Biotransformation": "Compound NOT metabolized"}

Provide Bacterial Biotransformation value for the following compound: O=C(O)COCCN1CCN(C(c2ccccc2)c2ccc(Cl)cc2)CC1 (stereo not drawn)
Compound NOT metabolized

Quick one: give measured Bacterial Biotransformation for C#C[C@]1(O)CC[C@H]2[C@@H]3CCC4=Cc5oncc5C[C@]4(C)[C@H]3CC[C@@]21C
Compound metabolized

Dear colleague, please send me the reported Bacterial Biotransformation for O=c1[nH]c2ccccc2n1C1CCN(CCCC(c2ccc(F)cc2)c2ccc(F)cc2)CC1 [PIMOZIDE] when you can.
Compound NOT metabolized

----------
# CONDITION: human gut metagenome, 24 h, 2 µM
ASSAY METRIC: Bacterial Biotransformation

Field: example entries. Status: answers known.
{"COMPOUND": "CC(C)c1c(C(=O)Nc2ccccc2)c(-c2ccccc2)c(-c2ccc(F)cc2)n1CC[C@@H](O)C[C@@H](O)CC(=O)O", "ASSAY METRIC": "Bacterial Biotransformation", "REPORTED RESULT": "Compound metabolized"}
{"COMPOUND": "Nc1c2c(nc3ccccc13)CCCC2", "ASSAY METRIC": "Bacterial Biotransformation", "REPORTED RESULT": "Compound metabolized"}
{"COMPOUND": "CN1CCc2c(c3ccccc3n2Cc2ccccc2)C1.CN1CCc2c(c3ccccc3n2Cc2ccccc2)C1.O=S(=O)(O)c1cccc2c(S(=O)(=O)O)cccc12", "ASSAY METRIC": "Bacterial Biotransformation", "REPORTED RESULT": "Compound metabolized"}
{"COMPOUND": "C=CCN1CC[C@]23c4c5ccc(O)c4O[C@H]2C(=O)CC[C@@]3(O)[C@H]1C5", "ASSAY METRIC": "Bacterial Biotransformation", "REPORTED RESULT": "Compound NOT metabolized"}
{"COMPOUND": "COc1ccccc1OCC(O)COC(N)=O (stereo not drawn)", "ASSAY METRIC": "Bacterial Biotransformation", "REPORTED RESULT": "Compound NOT metabolized"}

Answer with the recorded Bacterial Biotransformation for the compound listed here: CNC(=C[N+](=O)[O-])NCCSCc1ccc(CN(C)C)o1
Compound metabolized

Fill in reported Bacterial Biotransformation for this entry: O=c1[nH]c2ccccc2n1C1CCN(CCCC(c2ccc(F)cc2)c2ccc(F)cc2)CC1 [PIMOZIDE]
Compound metabolized

Please report Bacterial Biotransformation for the following compound: Br.CN(C)CCCC1(c2ccc(F)cc2)OCc2cc(C#N)ccc21 (stereo not drawn) [CITALOPRAM HYDROBROMIDE]
Compound metabolized

----------
# CONDITION: human gut metagenome, 24 h, 2 µM

{"MOLECULE": "COc1cc2nc(N3CCN(C(=O)c4ccco4)CC3)nc(N)c2cc1OC [PRAZOSIN]", "Bacterial Biotransformation": "Compound metabolized"}
{"MOLECULE": "Cc1cn([C@H]2C[C@H](N=[N+]=[N-])[C@@H](CO)O2)c(=O)[nH]c1=O [ZIDOVUDINE]", "Bacterial Biotransformation": "Compound NOT metabolized"}
{"MOLECULE": "CC[C@@H](CO)NC(=O)[C@@H]1C=C2c3cccc4c3c(cn4C)C[C@H]2N(C)C1.O=C(O)/C=C\\C(=O)O [METHYSERGIDE MALEATE]", "Bacterial Biotransformation": "Compound NOT metabolized"}
{"MOLECULE": "CCCCc1nc(Cl)c(CO)n1Cc1ccc(-c2ccccc2-c2nn[nH]n2)cc1 [LOSARTAN]", "Bacterial Biotransformation": "Compound metabolized"}

----------
# CONDITION: human gut metagenome, 24 h, 2 µM
ASSAY METRIC: Bacterial Biotransformation

Below, 5 compounds whose answers are already recorded.
{"COMPOUND": "CCN(CC)CC#CCOC(=O)C(O)(c1ccccc1)C1CCCCC1.Cl (configuration not stated) [OXYBUTYNIN CHLORIDE]", "Bacterial Biotransformation": "Compound metabolized"}
{"COMPOUND": "CN1CCN(CC/C=C2/c3ccccc3Sc3ccc(S(=O)(=O)N(C)C)cc32)CC1 [THIOTHIXENE]", "Bacterial Biotransformation": "Compound metabolized"}
{"COMPOUND": "CCCc1nc(C(C)(C)O)c(C(=O)OCc2oc(=O)oc2C)n1Cc1ccc(-c2ccccc2-c2nnn[nH]2)cc1 [OLMESARTAN MEDOXOMIL]", "Bacterial Biotransformation": "Compound metabolized"}
{"COMPOUND": "CC[C@@H](CO)NC(=O)[C@@H]1C=C2c3cccc4c3c(cn4C)C[C@H]2N(C)C1.O=C(O)/C=C\\C(=O)O [METHYSERGIDE MALEATE]", "Bacterial Biotransformation": "Compound metabolized"}
{"COMPOUND": "CN(C)C(=O)C(CCN1CCC(O)(c2ccc(Cl)cc2)CC1)(c1ccccc1)c1ccccc1 [LOPERAMIDE]", "Bacterial Biotransformation": "Compound metabolized"}

The record that follows has no Bacterial Biotransformation shown yet.
Name the recorded Bacterial Biotransformation of the item CC(=O)O[C@]1(C(C)=O)CC[C@H]2[C@@H]3C=C(Cl)C4=CC(=O)[C@@H]5C[C@@H]5[C@]4(C)[C@H]3CC[C@@]21C [CYPROTERONE ACETATE] in your answer.
Compound metabolized

----------
# CONDITION: human gut metagenome, 24 h, 2 µM
Where a SMILES comes first, the peptide text is derived from it. [ ]: non-standard residue; d: D form. pGlu = O=C1CC[C@@H](C(=O)O)N1; Thz = O=C(O)[C@@H]1CSCN1
ASSAY METRIC: Bacterial Biotransformation

Field: example entries. Status: answers known.
{"COMPOUND": "CC(O)(CS(=O)(=O)c1ccc(F)cc1)C(=O)Nc1ccc(C#N)c(C(F)(F)F)c1 (centres undefined) [BICALUTAMIDE]", "Bacterial Biotransformation": "Compound NOT metabolized"}
{"COMPOUND": "C[C@@H]1C[C@H]2[C@@H]3CCC4=CC(=O)C=C[C@]4(C)[C@@]3(F)[C@@H](O)C[C@]2(C)[C@@]1(O)C(=O)CO", "Bacterial Biotransformation": "Compound NOT metabolized"}
{"COMPOUND": "O=C1CC[C@@H](C(=O)N2CSC[C@H]2C(=O)O)N1 [PIDOTIMOD] ([pGlu]-[Thz]-OH)", "Bacterial Biotransformation": "Compound NOT metabolized"}
{"COMPOUND": "CCCCCOC(=O)Nc1nc(=O)n([C@@H]2O[C@H](C)[C@@H](O)[C@H]2O)cc1F", "Bacterial Biotransformation": "Compound metabolized"}
{"COMPOUND": "CC(C)(Oc1ccc(CCNC(=O)c2ccc(Cl)cc2)cc1)C(=O)O [BEZAFIBRATE]", "Bacterial Biotransformation": "Compound metabolized"}
{"COMPOUND": "Fc1ccc([C@@H]2CCNC[C@H]2COc2ccc3c(c2)OCO3)cc1", "Bacterial Biotransformation": "Compound metabolized"}
{"COMPOUND": "CC(C)(C#N)c1cc(Cn2cncn2)cc(C(C)(C)C#N)c1", "Bacterial Biotransformation": "Compound NOT metabolized"}
{"COMPOUND": "Cc1ccc(/C(=C\\CN2CCCC2)c2ccccn2)cc1", "Bacterial Biotransformation": "Compound NOT metabolized"}

As a next step, examine the compound that follows.
Note down Bacterial Biotransformation recorded for CCN(CC)C(C)CN1c2ccccc2Sc2ccccc21 (centres undefined)
Compound metabolized
